Recorded MRC5 ND50 for the following binders
Target Or Test System: human IL-1β (human, UniProt P01584 117-269)
Experiment Notes: cell-based or functional assay
Provide a numeric answer, followed by its unit.

- Binder: "ABT2-108 (other, dAb, VH, to IL-1β) VH: EVQLLESGGGLVQPGGSLRLSCAASGFTFAEYTMMWVRQAPGKGLEWVSRIGQDGKNTYYADSVKGRFTISRDNSKNTLYLQMNSLRAEDTAVYYCAKYTGRVGVHHLFDYWGQGTLVTSS"
  Measurement Label: "MRC5 ND50"
  Reported Value: "250 nM"
- Binder: "ABT2-76 (other, dAb, Vκ, to IL-1β; also called dAb ABT2-76) VL: DIQMTQSPSSLSASVGDRVTITCRASQSIDRWLAWYQQKPGKAPKLLIYRGSILQSGVPSRFSGSGSGTDFTLTISSLQPEDFATYYCQQVAFWPPTFGQGTKVEIKR"
  Measurement Label: "MRC5 ND50"
  Reported Value: "456 nM"
- Binder: "ABT2-13 (other, dAb, VH, to IL-1β; also called dAb ABT2-13) VH: EVQLLESGGGLVQPGGSLRLSCAASGFTFRDYVMYWARQAPGKGLEWVSRIDPMGSSTYYADSVKGRFTISRDNSKNTLYLQMNSLRAEDTAVYYCAKPEGNFDYWGQGTLVTVSS"
  Measurement Label: "MRC5 ND50"
  Reported Value: "800 nM"
- Binder: "ABT2-46 (other, dAb, Vκ, to IL-1β; also called dAb ABT2-46) VL: DIQMTQSPSSLSASVGDRVTITCRASQSIIEWLSWYQQKPGKAPKLLIYRTSVLQSGVPSRFSGSGSGTDFTLTISSLQPEDFATYYCQQNEFWPFTFGQGTKVEIKR"
  Measurement Label: "MRC5 ND50"
  Reported Value: "386 nM"
- Binder: "ABT2-65 (other, dAb, VH, to IL-1β; also called dAb ABT2-65) VH: EVQLLESGGGLVQPGGSLRLSCAASGFTFEDYQMGWVRQAPGKGLEWVSSISAMGNRTYYADSVKGRFTISRDDSKNTLYLQMNSLRAEDTAVYYCAKNLVRTQSKMWMFDYWGQGTLVTVSS"
  Measurement Label: "MRC5 ND50"
  Reported Value: "266 nM"

Attention now shifts to the item below.
Input: Please report the measured MRC5 ND50 for ABT2-42 (other, dAb, Vκ, to IL-1β; also called dAb ABT2-42) VL: DIQMTQSPSSLSASVGDRVTITCRASQYIEKWLTWYQQKPGKAPTLLIYRGSLLQSGVPSRFSGSGSGTDFTLTISSLQPEDFATYYCQQTEYWPFTFGQGTKVEIKR
Output: 770 nM
